The reported measurements were obtained from PubChem BioAssay AID1963431.

system: Rh18 complex spheroid viability, percent test/control; experiment: Anticancer human tumor Rh18 cell line growth inhibition [Asc]; settings: second compound 0.01 µM; first compound 0.1 µM; hits give low values;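 note: spheroids exposed to compound for 7 days; 100% = DMSO vehicle control wells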
METRIC_NAME: viability, T/C

Some entries whose results are on file:
Cn1ncnc1[C@H]1c2n[nH]c(=O)c3cc(F)cc(c23)N[C@@H]1c1ccc(F)cc1 + CNC(C)C(=O)NC1CN(S(=O)(=O)c2cccc(S(=O)(=O)N3CCC4CCC(C(=O)NC(c5ccccc5)c5ccccc5)N4C(=O)C(NC(=O)C(C)NC)C3)c2)CCC2CCC(C(=O)NC(c3ccccc3)c3ccccc3)N2C1=O: 19.2%
CCN1CCN(Cc2ccc(Nc3ncc(F)c(-c4cc(F)c5nc(C)n(C(C)C)c5c4)n3)nc2)CC1 + CNC(C)C(=O)NC1CN(S(=O)(=O)c2cccc(S(=O)(=O)N3CCC4CCC(C(=O)NC(c5ccccc5)c5ccccc5)N4C(=O)C(NC(=O)C(C)NC)C3)c2)CCC2CCC(C(=O)NC(c3ccccc3)c3ccccc3)N2C1=O: 40.6%

Please examine the following record next.
// query viability, T/C value for entry O=C(c1ccc(F)c(F)c1Nc1ccc(I)cc1F)N1CC(O)([C@@H]2CCCCN2)C1 + CNC(C)C(=O)NC1CN(S(=O)(=O)c2cccc(S(=O)(=O)N3CCC4CCC(C(=O)NC(c5ccccc5)c5ccccc5)N4C(=O)C(NC(=O)C(C)NC)C3)c2)CCC2CCC(C(=O)NC(c3ccccc3)c3ccccc3)N2C1=O
45.2%
